- TESTED_ON: NMDA receptor (GRIN1/GRIN2A subunits) (Homo sapiens, UniProt Q05586+Q12879)
- Construct: expressed in transfected cells
- Sequence (Q12879 23-1464, other chains not shown): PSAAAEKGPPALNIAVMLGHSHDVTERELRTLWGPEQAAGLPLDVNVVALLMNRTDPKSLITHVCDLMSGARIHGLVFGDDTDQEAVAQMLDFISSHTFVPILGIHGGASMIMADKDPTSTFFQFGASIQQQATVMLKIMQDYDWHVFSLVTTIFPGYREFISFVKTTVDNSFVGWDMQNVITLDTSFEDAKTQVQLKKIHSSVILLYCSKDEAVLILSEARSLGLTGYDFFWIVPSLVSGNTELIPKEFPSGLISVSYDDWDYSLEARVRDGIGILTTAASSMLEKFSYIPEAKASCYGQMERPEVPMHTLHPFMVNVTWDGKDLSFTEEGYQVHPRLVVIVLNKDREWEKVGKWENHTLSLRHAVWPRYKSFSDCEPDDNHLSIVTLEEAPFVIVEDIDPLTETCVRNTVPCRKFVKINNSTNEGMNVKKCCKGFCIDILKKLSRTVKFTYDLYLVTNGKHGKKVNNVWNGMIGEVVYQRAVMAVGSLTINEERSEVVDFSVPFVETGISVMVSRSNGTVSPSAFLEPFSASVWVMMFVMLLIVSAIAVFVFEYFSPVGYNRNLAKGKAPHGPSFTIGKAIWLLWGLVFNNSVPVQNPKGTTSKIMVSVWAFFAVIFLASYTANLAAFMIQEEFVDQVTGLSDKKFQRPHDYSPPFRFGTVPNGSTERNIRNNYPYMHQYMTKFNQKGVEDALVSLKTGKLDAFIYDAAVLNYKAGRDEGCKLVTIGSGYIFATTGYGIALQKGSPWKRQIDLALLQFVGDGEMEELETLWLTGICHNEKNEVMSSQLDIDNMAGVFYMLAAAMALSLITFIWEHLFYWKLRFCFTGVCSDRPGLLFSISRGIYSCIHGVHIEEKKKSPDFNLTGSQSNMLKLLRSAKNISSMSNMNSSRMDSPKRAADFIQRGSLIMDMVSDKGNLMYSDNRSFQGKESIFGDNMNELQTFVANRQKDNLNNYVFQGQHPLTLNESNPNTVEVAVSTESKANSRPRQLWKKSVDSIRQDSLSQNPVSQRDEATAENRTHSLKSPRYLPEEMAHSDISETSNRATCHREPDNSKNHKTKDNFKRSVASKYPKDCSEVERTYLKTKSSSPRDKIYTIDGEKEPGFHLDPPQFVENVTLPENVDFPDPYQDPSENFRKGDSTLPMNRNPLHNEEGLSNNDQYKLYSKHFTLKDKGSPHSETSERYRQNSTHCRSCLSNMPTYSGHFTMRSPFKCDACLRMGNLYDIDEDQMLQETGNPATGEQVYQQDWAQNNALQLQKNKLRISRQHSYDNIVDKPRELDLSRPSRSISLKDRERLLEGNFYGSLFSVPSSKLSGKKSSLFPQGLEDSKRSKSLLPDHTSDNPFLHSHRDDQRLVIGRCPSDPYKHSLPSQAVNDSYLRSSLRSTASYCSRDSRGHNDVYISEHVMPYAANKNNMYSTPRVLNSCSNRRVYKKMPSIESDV
- PROTOCOL_TEXT: NMDA potentiation, whole-cell patch-clamp in HEK cells
- Type: cell-based
- CONDITION_SUMMARY: compound 1 uM, currents evoked by 30 μM NMDA and 5.0 μM Glycine, holding potential −80 mV
READOUT_KIND: NMDA 1a2A (%) Potentiation 1 uM
The answer is to be given in %; state only the numeric part.

Examples with answers:
molecule=CC[C@]1(O)CC[C@@]2(C)C(=CC[C@H]3[C@@H]4CC[C@H]([C@H](C)CCC(C)(C)O)[C@@]4(C)CC[C@@H]32)C1 tested_on="NMDA receptor (GRIN1/GRIN2A subunits) (Homo sapiens, UniProt Q05586+Q12879)" measurement_units=% endpoint_value=286
molecule=C[C@H](CC(C)(C)O)[C@H]1CC[C@H]2[C@@H]3CC=C4C[C@@H](O)CC[C@]4(C)[C@H]3CC[C@]12C tested_on="NMDA receptor (GRIN1/GRIN2A subunits) (Homo sapiens, UniProt Q05586+Q12879)" measurement_units=% endpoint_value=27
molecule=COC[C@@]1(O)CC[C@@]2(C)[C@@H](CC[C@@H]3[C@@H]2CC[C@]2(C)[C@@H]([C@H](C)CCC(C)(C)O)CC[C@@H]32)C1 tested_on="NMDA receptor (GRIN1/GRIN2A subunits) (Homo sapiens, UniProt Q05586+Q12879)" measurement_units=% endpoint_value=25
molecule=C[C@H](CCC(C)(C)O)[C@H]1CC[C@H]2[C@@H]3CC[C@H]4C[C@](O)(C(F)(F)F)CC[C@]4(C)[C@H]3CC[C@]12C tested_on="NMDA receptor (GRIN1/GRIN2A subunits) (Homo sapiens, UniProt Q05586+Q12879)" measurement_units=% endpoint_value=172
molecule=C[C@H](CCC(C)(C)N)[C@H]1CC[C@H]2[C@@H]3CC=C4C[C@@H](O)CC[C@]4(C)[C@H]3CC[C@]12C tested_on="NMDA receptor (GRIN1/GRIN2A subunits) (Homo sapiens, UniProt Q05586+Q12879)" measurement_units=% endpoint_value=−19

State its NMDA 1a2A (%) Potentiation 1 uM on NMDA receptor (GRIN1/GRIN2A subunits) (Homo sapiens, UniProt Q05586+Q12879): CC(C)(O)CCO[C@H]1CCC2C3CC[C@H]4C[C@@](C)(O)CC[C@]4(C)C3CC[C@@]21C (stereo partly drawn) 27

Lab note: need NMDA 1a2A (%) Potentiation 1 uM with NMDA receptor (GRIN1/GRIN2A subunits) (Homo sapiens, UniProt Q05586+Q12879) for entry C[C@H](CCC(C)(C)O)[C@H]1CC[C@H]2[C@@H]3CC[C@@H]4C[C@@](O)(C(F)(F)F)CC[C@]4(C)[C@H]3CC[C@]12C , please look it up. 18

State its NMDA 1a2A (%) Potentiation 1 uM on NMDA receptor (GRIN1/GRIN2A subunits) (Homo sapiens, UniProt Q05586+Q12879): C[C@H](CCC(C)(C)O)[C@H]1CC[C@H]2[C@@H]3CC[C@H]4C[C@](C)(O)CC[C@]4(C)[C@H]3CC[C@]12C 30

Which NMDA 1a2A (%) Potentiation 1 uM is reported with NMDA receptor (GRIN1/GRIN2A subunits) (Homo sapiens, UniProt Q05586+Q12879) for this entry: C[C@H](CCC(C)(C)O)[C@H]1CC[C@H]2[C@@H]3CC[C@H]4C[C@@](C)(O)CC[C@@H]4[C@H]3CC[C@]12C ? 114

Give recorded NMDA 1a2A (%) Potentiation 1 uM with NMDA receptor (GRIN1/GRIN2A subunits) (Homo sapiens, UniProt Q05586+Q12879) for the following molecule: CNC(C)(C)CC[C@@H](C)[C@H]1CC[C@H]2[C@@H]3CC=C4C[C@@H](O)CC[C@]4(C)[C@H]3CC[C@]12C 19

Form: Entry = C[C@H](CCC(C)(C)O)[C@H]1CC[C@H]2[C@@H]3CC[C@H]4C[C@](O)(C(F)(F)F)CC[C@@H]4[C@H]3CC[C@]12C | System = NMDA receptor (GRIN1/GRIN2A subunits) (Homo sapiens, UniProt Q05586+Q12879) | NMDA 1a2A (%) Potentiation 1 uM = ____ 85

Any idea what NMDA 1a2A (%) Potentiation 1 uM came out for CC(CCC(C)(C)O)[C@H]1CC[C@H]2[C@@H]3CC=C4C[C@@H](O)CC[C@]4(C)[C@H]3CC[C@]12C (stereo partly drawn) on NMDA receptor (GRIN1/GRIN2A subunits) (Homo sapiens, UniProt Q05586+Q12879)? 197

What NMDA 1a2A (%) Potentiation 1 uM appears in the records for this molecule with NMDA receptor (GRIN1/GRIN2A subunits) (Homo sapiens, UniProt Q05586+Q12879)? CC(C)[C@H](O)CC[C@@H](C)[C@H]1CC[C@H]2[C@@H]3CC=C4C[C@@H](O)CC[C@]4(C)[C@H]3CC[C@]12C 137

Enter reported NMDA 1a2A (%) Potentiation 1 uM observed with NMDA receptor (GRIN1/GRIN2A subunits) (Homo sapiens, UniProt Q05586+Q12879) for C[C@H](CCC(C)(C)O)[C@H]1CC[C@H]2[C@@H]3CC[C@H]4C[C@](C)(O)CC[C@@H]4[C@H]3CC[C@]12C 52

Request body: readout NMDA 1a2A (%) Potentiation 1 uM, system NMDA receptor (GRIN1/GRIN2A subunits) (Homo sapiens, UniProt Q05586+Q12879), query C[C@@H]([C@H]1CC[C@H]2[C@@H]3CC=C4C[C@@H](O)CC[C@]4(C)[C@H]3CC[C@]12C)C(C)(C)O . Return the value. 24

Kindly state the measured NMDA 1a2A (%) Potentiation 1 uM obtained for C[C@H](CCC(C)(C)O)[C@H]1CC[C@H]2[C@@H]3CC[C@H]4C[C@@H](O)CC[C@@H]4[C@H]3CC[C@]12C with NMDA receptor (GRIN1/GRIN2A subunits) (Homo sapiens, UniProt Q05586+Q12879). 44

Item: CC(C)(O)CCC[C@H]1CCC2C3CC[C@H]4C[C@@](C)(O)CC[C@]4(C)C3CC[C@@]21C (stereo partly drawn) Test system: NMDA receptor (GRIN1/GRIN2A subunits) (Homo sapiens, UniProt Q05586+Q12879) Read-out: NMDA 1a2A (%) Potentiation 1 uM Value: ? 105

Checklist item: NMDA 1a2A (%) Potentiation 1 uM tested on NMDA receptor (GRIN1/GRIN2A subunits) (Homo sapiens, UniProt Q05586+Q12879), entry C[C@H](CCC(C)(C)O)[C@H]1CC[C@H]2[C@@H]3CC=C4C[C@](C)(O)CC[C@]4(C)[C@H]3CC[C@]12C , value? 60

Hi! What's the reported NMDA 1a2A (%) Potentiation 1 uM for CC(O)CC[C@@H](C)[C@H]1CC[C@H]2[C@@H]3CC=C4C[C@@H](O)CC[C@]4(C)[C@H]3CC[C@]12C (stereo partly drawn) on NMDA receptor (GRIN1/GRIN2A subunits) (Homo sapiens, UniProt Q05586+Q12879)? 98

Give recorded NMDA 1a2A (%) Potentiation 1 uM with NMDA receptor (GRIN1/GRIN2A subunits) (Homo sapiens, UniProt Q05586+Q12879) for the following molecule: CC(C)(O)COC[C@H]1CCC2C3CC=C4C[C@@](C)(O)CC[C@]4(C)C3CC[C@@]21C (stereo partly drawn) −14

Report NMDA 1a2A (%) Potentiation 1 uM for C[C@H](CCC1(O)CC1)[C@H]1CC[C@H]2[C@@H]3CC=C4C[C@@H](O)CC[C@]4(C)[C@H]3CC[C@]12C tested on NMDA receptor (GRIN1/GRIN2A subunits) (Homo sapiens, UniProt Q05586+Q12879). 171

* * *

Overview of reported NMDA 1a2A (%) Potentiation 0.1 uM across a group of compounds:
- TESTED_ON: NMDA receptor (GRIN1/GRIN2A subunits) (Homo sapiens, UniProt Q05586+Q12879)
- Construct: expressed in transfected cells
- PROTOCOL_TEXT: NMDA potentiation, whole-cell patch-clamp in HEK cells
- Assay type: cell-based
- CONDITION_SUMMARY: compound 0.1 uM, currents evoked by 30 μM NMDA and 5.0 μM Glycine, holding potential −80 mV
Field: numeric (%). Do not append units.

Reference set, count: 2
compound=C[C@H](CCC(C)(C)O)[C@H]1CC[C@H]2[C@@H]3CC[C@H]4C[C@@](C)(O)CC[C@@H]4[C@H]3CC[C@]12C endpoint_value=25
compound="CC(O)CC[C@@H](C)[C@H]1CC[C@H]2[C@@H]3CC=C4C[C@@H](O)CC[C@]4(C)[C@H]3CC[C@]12C (stereo partly drawn)" endpoint_value=42

Now look at this entry.
Given C[C@H](CCC(C)(C)O)[C@H]1CC[C@H]2[C@@H]3CC[C@H]4C[C@](C)(O)CC[C@]4(C)[C@H]3CC[C@]12C , state its recorded NMDA 1a2A (%) Potentiation 0.1 uM. 19
